Molecular target: T1, human alpha CGRP (SEQ ID NO: 80) (human, not fully specified)
T1 construct: also called human αCGRP; hαCGRP
T1 peptide: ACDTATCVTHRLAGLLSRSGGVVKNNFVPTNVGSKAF
Assay: SPR, 37 C, mutein captured, CGRP analyte
Experimental Endpoint: koff (s⁻¹)
Just the number please, in s⁻¹, no unit attached.

Q) koff for lipocalin mutein SEQ ID NO: 17 (designed binder, biotinylated by NHS chemistry for capture in SPR) QDSTSDLIPAPPLSKVPLQQNFQDNQFHGKWYVVGRAGNDVLREDKDPEKMEATIYELKEDKSYNVTDVGFVQKRCMYVTHTFVPGSQPGEFTLGNIESYPGVTSALVRVVSTDYNQHAMVFVKLVKQNRELFEITLYGRTKELTSELKENFIRFSKSLGLPENHIVFPVPIDQCIDGSAWSHPQFEK ?
A) 3.66e-05

Q) koff for lipocalin mutein SEQ ID NO: 22 (designed binder, biotinylated by NHS chemistry for capture in SPR) QDSTSDLIPAPPLSKVPLQQNFQDNQFHGKWYVVGRAGNDALREDKDPEKMEATIYELKEDKSYNVTDVGLVQKKCMYVIHTFVPGGQPGEFTLGNIKSYPGVTSALVRVVSTNYNQHAMVFVKLVKQNRELFEITLYGRTKELTSELKENFIRFSKSLGLPENHIVFPVPIDQCIDGSAWSHPQFEK ?
A) 1.56e-05

Q) koff for lipocalin mutein SEQ ID NO: 19 (designed binder, biotinylated by NHS chemistry for capture in SPR) QDSTSDLIPAPPLSKVPLQQNFQDNQFHGKWYVVGRAGNDTLREDKDPEKMEATIYELKEDKSYNVTDVGLVQKKCMYVIHTFVPGSQPGEFTLGNIKSYPGVTSALVRVVSTNYNQHAMVFVKLVKQSRELFEITLYGRTKELTSELKENFIRFSKSLGLPENHIVFPVPIDQCIDGSAWSHPQFEK ?
A) 1.07e-05

Q) koff for lipocalin mutein SEQ ID NO: 11 (designed binder, biotinylated by NHS chemistry for capture in SPR) QDSTSDLIPAPPLSKVPLQQNFQDNQFHGKWYVVGWAGNTLLREDKDPIKMQAIIYELKEDRSYNVTWVYFSEKKCNYHIETFVPGSQPGEFTLGTIKSYPGETPILVRVVSTNYNQHAMVFFKGVNQNREIFEIILYGRTKELTNELKENFIRFSKSLGLPENHIVFPVPIDQCIDGSAWSHPQFEK ?
A) 4.55e-05

Q) koff for lipocalin mutein SEQ ID NO: 27 (designed binder, biotinylated by NHS chemistry for capture in SPR) QDSTSDLIPAPPLSKVPLQQNFQDNQFHGKWYVVGWAGNTLLREDKDPIKMQAMIYELKEDKSYNVTWVYFADKKCNYHIETFVPGSQPGEFTLGTIKSYPGETPILVRVVSTNYNQHAMVFFKGVNQNREIFEIVLYGRTKELTNELKENFIRFSKSLGLPENHIVFPVPIDQCIDGSAWSHPQFEK ?
A) 2.59e-05

Q) koff for lipocalin mutein SEQ ID NO: 14 (designed binder, biotinylated by NHS chemistry for capture in SPR) QDSTSDLIPAPPLSKVPLQQNFQDNQFHGKWYVVGRAGNDALREDKDPEKMEATIYELKEDKSYNVTDVGFVQKKCMYVIHTFVPGSQPGEFTLGNIKSYPGVTSALVRVVSTNYNQHAMVFFKLVKQNRELFEITLYGRTKELTSELKENFIRFSKSLGLPENHIVFPVPIDQCIDGSAWSHPQFEK ?
A) 0.000141
